Target: Non-structural protein 4b (Hepacivirus hominis)
Assay: Inhibition of Hepatitis C virus genotype 3a NS4B
Each entry below lists one item and its recorded pIC50 value.
The meaning of pIC50 here: minus log10 of the concentration in molar units.

As a guide, the following entries are already answered.
>  <smilesEntry>
C=C[C@@H]1C[C@]1(NC(=O)[C@@H]1C[C@]23CCc4c(c(nc5ccc(OC)cc45)CCCCC[C@@H]4C[C@H]4OC(=O)N[C@@H](C4(C)CCCCC4)C(=O)N1C2)O3)C(=O)NS(=O)(=O)C1(C)CC1

>  <resultValue>
8.35

$$$$
>  <smilesEntry>
Cc1nc2ccccc2c2c1O[C@]1(CC2)C[C@H]2C(=O)N[C@]3(C(=O)NS(=O)(=O)C4(C)CC4)C[C@H]3/C=C/CCCCC[C@H](NC(=O)OC(C)(C)C)C(=O)N2C1

>  <resultValue>
9.15

$$$$
>  <smilesEntry>
CC(C)(C)[C@@H]1NC(=O)O[C@@H]2CCC[C@H]2OC/C=C/C(F)(F)c2nc3ccccc3nc2O[C@@H]2C[C@@H](C(=O)N[C@]3(C(=O)NS(=O)(=O)C4(C)CC4)C[C@H]3C(F)F)N(C2)C1=O

>  <resultValue>
5.10

$$$$

Moving on to the next compound.
QUERY: May I ask what pIC50 has been recorded for CC(C)Oc1ccc(-c2nc(O[C@@H]3C[C@H]4C(=O)N[C@]5(C(=O)NS(=O)(=O)C6(C)CC6)C[C@H]5/C=C\CCCCC[C@H](NC(=O)OC5CCCC5)C(=O)N4C3)c3oc4ccccc4c3n2)cc1 ?
RESULT: 6.22

* * *

Biological target: Non-structural protein 4b (Hepacivirus hominis, UniProt F5B4I0)
Assay: Binding affinity to Hepatitis C virus genotype 6a NS4B assessed as inhibition constant
assayEndpoint: pKi
The meaning of pKi here: minus log10 of the concentration in molar units.

QUERY: May I ask what pKi has been recorded for CC(C)(C)[C@@H]1NC(=O)O[C@@H]2CCC[C@H]2OC/C=C/C(F)(F)c2nc3ccccc3nc2O[C@@H]2C[C@@H](C(=O)N[C@]3(C(=O)NS(=O)(=O)C4(C)CC4)C[C@H]3C(F)F)N(C2)C1=O ?
RESULT: 9.96

* * *

Each entry below lists one item and its recorded Vd value.
Experiment: Volume of distribution at steady state in Sprague-Dawley rat at 1 mg/kg, iv
Type: ADME, organism-based
Details: in vivo, read-out: Vdss
Number only, in L/kg; omit the unit.

>  <compound>
C=C[C@@H]1C[C@]1(NC(=O)[C@@H]1C[C@@H]2CN1C(=O)[C@H](C1CCCC1)NC(=O)O[C@@H]1CCC[C@H]1CCCCCn1c(nc3cc(OC)ccc3c1=O)O2)C(=O)NS(=O)(=O)C1(C)CC1

>  <assayEndpoint>
Vd

>  <resultValue>
5

$$$$

Moving on to the next compound.
QUERY: May I ask what Vd has been recorded for COc1ccc2nc3c(nc2c1)O[C@@H]1CC2C(=O)N[C@]4(C(=O)NS(=O)(=O)C5(C)CC5)C[C@@H]4/C=C/CCCCC[C@H](NC(=O)O[C@@H]4CCC[C@H]4CCCCC3)C(=O)N2C1 (some centres not stated) ?
RESULT: 4

* * *

Each entry below lists one item and its recorded IC50 value.
Target: UniProtKB F5B4I0
Assay: Inhibition of Hepatitis C virus genotype 6a NS4B
Number only, in nM; omit the unit.

>  <smilesEntry>
CC(C)(C)[C@@H]1NC(=O)O[C@@H]2CCC[C@H]2OC/C=C/C(F)(F)c2nc3ccccc3nc2O[C@@H]2C[C@@H](C(=O)N[C@]3(C(=O)NS(=O)(=O)C4(C)CC4)C[C@H]3C(F)F)N(C2)C1=O

>  <assayEndpoint>
IC50

>  <resultValue>
11.3

$$$$

Moving on to the next molecule.
QUERY: May I ask what IC50 has been recorded for CC(C)Oc1ccc(-c2nc(O[C@@H]3C[C@H]4C(=O)N[C@]5(C(=O)NS(=O)(=O)C6(C)CC6)C[C@H]5/C=C\CCCCC[C@H](NC(=O)OC5CCCC5)C(=O)N4C3)c3oc4ccccc4c3n2)cc1 ?
RESULT: 0.6

* * *

Test: AUC in Sprague-Dawley rat at 5 mg/kg, po measured upto 24 hrs by LC/MS/MS analysis
Assay type: ADME, organism-based
Conditions: in vivo
assayEndpoint: AUC (µM·h)
Number only, in µM·h; omit the unit.

QUERY: May I ask what AUC has been recorded for C=C[C@@H]1C[C@]1(NC(=O)[C@@H]1C[C@@H](Oc2cc(-c3csc(NC(=O)C(C)C)n3)nc3c(Br)c(OC)ccc23)CN1C(=O)[C@@H](NC(=O)OC1CCCC1)C(C)(C)C)C(=O)O ?
RESULT: 1.55

* * *

Each entry below lists one item and its recorded Cmax value.
Experiment: Cmax in Beagle dog at 3 mg/kg, po and measured upto 24 hrs by LC-MS/MS analysis
Assay type: ADME, organism-based, Canis lupus familiaris
Conditions: in vivo
Number only, in nM; omit the unit.

>  <compound>
COc1ccc2nc3c(nc2c1)O[C@@H]1CC2C(=O)N[C@]4(C(=O)NS(=O)(=O)C5(C)CC5)C[C@@H]4/C=C/CCCCC[C@H](NC(=O)O[C@@H]4CCC[C@H]4CCCCC3)C(=O)N2C1 (some centres not stated)

>  <assayEndpoint>
Cmax

>  <unitSpec>
nM

>  <resultValue>
350

$$$$

Moving on to the next compound.
QUERY: May I ask what Cmax has been recorded for C=C[C@@H]1C[C@]1(NC(=O)[C@@H]1C[C@@H]2CN1C(=O)[C@H](C1CCCC1)NC(=O)O[C@@H]1CCC[C@H]1CCCCCn1c(nc3cc(OC)ccc3c1=O)O2)C(=O)NS(=O)(=O)C1(C)CC1 [MK-2748] ?
RESULT: 4400

* * *

Biological target: UniProt:F5B4I0
Sequence (F5B4I0 whole entry): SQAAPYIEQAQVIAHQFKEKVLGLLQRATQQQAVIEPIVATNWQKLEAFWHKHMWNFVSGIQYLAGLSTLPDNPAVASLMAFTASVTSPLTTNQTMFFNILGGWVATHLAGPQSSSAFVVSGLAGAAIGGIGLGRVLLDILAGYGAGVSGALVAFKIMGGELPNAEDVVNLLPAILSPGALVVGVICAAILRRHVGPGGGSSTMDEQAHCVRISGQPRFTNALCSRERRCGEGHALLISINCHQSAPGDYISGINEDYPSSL
Assay: Inhibition of Hepatitis C virus genotype 3a NS4B expressed in Escherichia coli
assayEndpoint: pEC50
The meaning of pEC50 here: minus log10 of the concentration in molar units.

QUERY: API: value(readout=pEC50, system=UniProt:F5B4I0) for record CC(C)Oc1ccc(-c2nc(O[C@@H]3C[C@H]4C(=O)N[C@]5(C(=O)NS(=O)(=O)C6(C)CC6)C[C@H]5/C=C\CCCCC[C@H](NC(=O)OC5CCCC5)C(=O)N4C3)c3oc4ccccc4c3n2)cc1
RESULT: 8.80

* * *

Target: Non-structural protein 4b (Hepacivirus hominis)
Sequence (F5B4I0 whole entry): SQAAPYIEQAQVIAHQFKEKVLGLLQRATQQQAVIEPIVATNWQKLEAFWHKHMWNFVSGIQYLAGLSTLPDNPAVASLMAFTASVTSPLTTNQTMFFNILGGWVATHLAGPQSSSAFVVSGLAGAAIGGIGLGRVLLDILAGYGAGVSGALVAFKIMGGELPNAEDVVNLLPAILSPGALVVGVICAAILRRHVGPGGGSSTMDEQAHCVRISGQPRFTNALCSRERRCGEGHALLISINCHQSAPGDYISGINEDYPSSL
Test: Binding affinity to Hepatitis C virus genotype 1 NS4B assessed as inhibition constant
*1 amine or outer side, *2 acyl side, *3 side chain or, on linkers, in order; H or OH if unused. Where a SMILES comes first, the peptide text is derived from it. Side-chain parts run from the residue outwards. [ ]: non-standard residue; d: D form. The star is where a group is joined. Tetrahydroisoquinolin(2-yl) = c1ccc2c(c1)CCN(*)C2; Pyrazinecarbonyl = O=C(c1cnccn1)*; Hyp = O=C(O)[C@@H]1C[C@@H](O)CN1; Abu = CC[C@H](N)C(=O)O; CO = O=C([*:1])[*:2]; Bn = c1ccc(C*)cc1
Each entry below lists one item and its recorded Ki value.
Number only, in nM; omit the unit.

As a guide, the following entries are already answered.
>  <molecule>
CC[C@@H](C=O)NC(=O)[C@@H]1C[C@@H](OC(=O)N2CCc3ccccc3C2)CN1C(=O)[C@@H](NC(=O)[C@@H](NC(=O)c1cnccn1)C(C)C)C(C)C (Pyrazinecarbonyl-VV[Hyp]([CO-Tetrahydroisoquinolin(2-yl)])[Abu]-aldehyde)

>  <testedTarget>
Non-structural protein 4b (Hepacivirus hominis)

>  <assayEndpoint>
Ki

>  <resultValue>
890

$$$$
>  <molecule>
CC[C@@H](C=O)NC(=O)[C@@H]1C[C@@H](OCc2ccccc2)CN1C(=O)[C@@H](NC(=O)[C@@H](NC(=O)[C@H](CC(=O)O)NC(=O)[C@H](CCC(=O)O)NC(C)=O)C(C)C)C(C)C (Ac-EDVV[Hyp](Bn)[Abu]-aldehyde)

>  <testedTarget>
Non-structural protein 4b (Hepacivirus hominis)

>  <assayEndpoint>
Ki

>  <resultValue>
890

$$$$
>  <molecule>
CCC[C@H](NC(=O)[C@@H]1C[C@@H](OC(=O)N2CCc3ccccc3C2)CN1C(=O)[C@@H](NC(=O)[C@@H](NC(=O)c1cnccn1)C(C)C)C(C)C)C(=O)C(=O)NC1CC1

>  <testedTarget>
Non-structural protein 4b (Hepacivirus hominis)

>  <assayEndpoint>
Ki

>  <resultValue>
2300

$$$$

Moving on to the next molecule.
QUERY: May I ask what Ki has been recorded for CC[C@@H](C=O)NC(=O)[C@@H]1C[C@@H](OCc2ccccc2)CN1C(=O)[C@@H](NC(=O)[C@@H](NC(=O)c1cnccn1)C(C)C)C(C)C (Pyrazinecarbonyl-VV[Hyp](Bn)[Abu]-aldehyde) ?
RESULT: 12000
